The following compounds are listed with their measured Emax values.
biological target: human AMPK α1β1γ1 enzyme (Homo sapiens, UniProt Q13131+Q9Y478); construct: purchased Carna Biosciences, Inc; assay: AMPK activator evaluation, Test Example 1 (mobility shift, FL-Peptide 7); assay type: biochemical; settings: human AMPK α1β1γ1, control without compound = 100%; read-out: Emax (maximum rate of increase in activity within the measurement range)
Sequence (Q13131 10-559 limits assumed): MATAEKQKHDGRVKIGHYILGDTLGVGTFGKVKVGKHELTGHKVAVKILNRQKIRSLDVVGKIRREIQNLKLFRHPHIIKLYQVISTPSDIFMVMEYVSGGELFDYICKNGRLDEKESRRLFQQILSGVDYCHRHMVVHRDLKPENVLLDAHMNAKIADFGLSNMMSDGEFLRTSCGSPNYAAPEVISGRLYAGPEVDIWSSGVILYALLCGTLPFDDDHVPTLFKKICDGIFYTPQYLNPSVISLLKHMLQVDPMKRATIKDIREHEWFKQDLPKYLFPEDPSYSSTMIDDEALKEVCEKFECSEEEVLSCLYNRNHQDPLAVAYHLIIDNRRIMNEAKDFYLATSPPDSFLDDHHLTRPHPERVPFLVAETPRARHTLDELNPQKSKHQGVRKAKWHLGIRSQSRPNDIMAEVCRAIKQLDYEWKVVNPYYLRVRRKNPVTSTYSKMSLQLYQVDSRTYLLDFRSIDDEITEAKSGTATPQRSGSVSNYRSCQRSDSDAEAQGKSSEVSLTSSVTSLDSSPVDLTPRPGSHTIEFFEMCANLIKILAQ
Sequence (Q9Y478 whole entry): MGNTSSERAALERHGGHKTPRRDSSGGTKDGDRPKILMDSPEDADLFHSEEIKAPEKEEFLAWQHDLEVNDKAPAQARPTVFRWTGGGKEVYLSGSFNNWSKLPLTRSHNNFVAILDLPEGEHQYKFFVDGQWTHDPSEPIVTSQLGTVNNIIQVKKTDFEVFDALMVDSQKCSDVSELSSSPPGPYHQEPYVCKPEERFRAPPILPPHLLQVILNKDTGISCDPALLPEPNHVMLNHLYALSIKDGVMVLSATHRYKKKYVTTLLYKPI
Sequence (P54619 whole entry partner): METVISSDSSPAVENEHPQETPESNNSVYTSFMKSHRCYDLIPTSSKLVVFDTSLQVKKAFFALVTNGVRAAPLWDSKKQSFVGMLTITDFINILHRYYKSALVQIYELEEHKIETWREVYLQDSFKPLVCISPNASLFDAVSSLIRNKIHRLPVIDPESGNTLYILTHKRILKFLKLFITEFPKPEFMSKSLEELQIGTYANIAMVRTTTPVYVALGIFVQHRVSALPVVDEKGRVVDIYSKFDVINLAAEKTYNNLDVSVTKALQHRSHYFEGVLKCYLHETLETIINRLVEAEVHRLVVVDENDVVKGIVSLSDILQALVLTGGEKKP

chem-smiles | Emax, %
Cc1ccc(Oc2nc3nc(-c4ccc(C5(CO)CC5)cc4)c(Cl)cc3[nH]2)cc1C(=O)O | 349
Cc1ccc(Oc2nc3nc(-c4ccc(N5CCCCC5=O)cc4)c(Cl)cc3[nH]2)cc1C(=O)O | 298
Cc1ccc(Oc2nc3nc(-c4ccc(N5CCOCC5)cc4)c(C(F)(F)F)cc3[nH]2)cc1C(=O)O | 326
CC(=O)NC(C)(C)c1ccc(Oc2nc3nc(-c4ccc(OCCO)cc4)c(Cl)cc3[nH]2)cc1 | 280

* * *

target: human AMPK α1β1γ1 enzyme (Homo sapiens, UniProt Q13131+Q9Y478); construct: purchased Carna Biosciences, Inc; assay: AMPK activator evaluation, Test Example 1 (mobility shift, FL-Peptide 7); format: biochemical; details: human AMPK α1β1γ1, control without compound = 100%; read-out: Emax (maximum rate of increase in activity within the measurement range)
endpoint-label: Emax (%)

compound | endpoint-label | unit-spec | reported
CC(=O)NC(C)(C)c1ccc(Oc2nc3nc(-c4ccc(C5(C(C)O)CC5)cc4)c(Cl)cc3[nH]2)cc1 (stereo not drawn) | Emax | % | 238
Cc1ccc(-c2ccc(-c3nc4nc(Oc5ccc(C)c(C(=O)O)c5)[nH]c4cc3Cl)cc2)cc1 | Emax | % | 301
Cc1ccc(Oc2nc3cc(-c4ccc(N5CCOCC5)cc4)c(C)nc3[nH]2)cc1C(=O)O | Emax | % | 283
O=C1CCc2ccc(Oc3nc4nc(-c5ccc(N6CCOCC6)cc5)c(Cl)cc4[nH]3)cc2N1 | Emax | % | 319
COc1ccc(-c2ccc(-c3nc4nc(Oc5ccc(C)c(C(=O)O)c5)[nH]c4cc3Cl)cc2)cc1 | Emax | % | 349
Cc1ccc(Oc2nc3nc(-c4ccc(OCC(C)(C)O)cc4)c(Cl)cc3[nH]2)cc1C(=O)O | Emax | % | 338
CC(C)(C(=O)NCCO)c1ccc(Oc2nc3nc(-c4ccc(N5CCOCC5)cc4)c(Cl)cc3[nH]2)cn1 | Emax | % | 177
COC(=O)NC(C)(C)c1ccc(Oc2nc3nc(-c4ccc(N5CCOCC5)cc4)c(Cl)cc3[nH]2)cn1 | Emax | % | 211
CC(=O)NCCCOc1ccc(-c2nc3nc(Oc4ccc(C(C)(C)NC(C)=O)cc4)[nH]c3cc2Cl)cc1 | Emax | % | 270
CCc1ccc(Oc2nc3nc(-c4ccc(N5CCOCC5)cc4)c(Cl)cc3[nH]2)cn1 | Emax | % | 242
CC(=O)NC(C)(C)c1ccc(Oc2nc3nc(-c4ccc(NCCO)cc4)c(Cl)cc3[nH]2)cc1 | Emax | % | 267
COc1ccc(Oc2nc3nc(-c4ccc(N5CCOCC5)cc4)c(Cl)cc3[nH]2)cn1 | Emax | % | 212
CC(C)(NS(C)(=O)=O)c1ccc(Oc2nc3nc(-c4ccc(N5CCOCC5)cc4)c(Cl)cc3[nH]2)cc1 | Emax | % | 169
CC(C)(C(N)=O)c1ccc(Oc2nc3nc(-c4ccc(C5(CO)CC5)cc4)c(Cl)cc3[nH]2)cn1 | Emax | % | 174
Cc1ccc(Oc2nc3nc(C#Cc4ccccc4)c(Cl)cc3[nH]2)cc1C(=O)O | Emax | % | 309
Cc1ccc(Oc2nc3nc(-c4ccc(N5CCOCC5)cc4)c(Cl)cc3[nH]2)cc1 | Emax | % | 278
Cc1ccc(Oc2nc3nc(-c4ccc(N5CCOCC5)cc4)c(Cl)cc3[nH]2)cc1C(N)=O | Emax | % | 256
O=C(O)c1cncc(Oc2nc3nc(-c4ccc(N5CCOCC5)cc4)c(Cl)cc3[nH]2)c1 | Emax | % | 262
O=P(O)(O)c1cccc(Oc2nc3cc(Cl)c(-c4ccc(N5CCOCC5)cc4)nc3[nH]2)c1 | Emax | % | 334
Cc1ccc(Oc2nc3nc(-c4ccc(N5CCOCC5)cc4)c(Cl)cc3[nH]2)cc1C(=O)NC#N | Emax | % | 322
Cc1ccc(Oc2nc3nc(-c4ccc(N5CCOCC5)cc4)ncc3[nH]2)cc1C(=O)O | Emax | % | 246
Cc1ncc(Oc2nc3nc(-c4ccc(N5CCOCC5)cc4)c(Cl)cc3[nH]2)cn1 | Emax | % | 278
CC(C)(C)C(=O)NC(C)(C)c1ccc(Oc2nc3nc(-c4ccc(N5CCOCC5)cc4)c(Cl)cc3[nH]2)cc1 | Emax | % | 252
Cc1ccc(Oc2nc3nc(-c4ccc(-c5ccccc5)cc4)c(Cl)cc3[nH]2)cc1C(=O)O | Emax | % | 339
CN1CCc2cc(-c3nc4nc(Oc5ccc(C(C)(C)C(N)=O)cc5)[nH]c4cc3Cl)ccc21 | Emax | % | 192
CC(=O)NC(C)(C)c1ccc(Oc2nc3nc(-c4ccc(N5CCC(O)C5)cc4)c(Cl)cc3[nH]2)cc1 (stereo not drawn) | Emax | % | 263
CC(C)(CO)c1ccc(Oc2nc3nc(-c4ccc(N5CCOCC5)cc4)c(Cl)cc3[nH]2)cn1 | Emax | % | 186
CCc1ccc(Oc2nc3nc(-c4ccc(N5CCOCC5)cc4)c(Cl)cc3[nH]2)cc1C(=O)O | Emax | % | 335
Cc1ccc(Oc2nc3nc(-c4ccc(OCC(C)C)cc4)c(Cl)cc3[nH]2)cc1C(=O)O | Emax | % | 329
CC(C)(C(=O)O)c1cccc(Oc2nc3nc(-c4ccc(N5CCOCC5)cc4)c(Cl)cc3[nH]2)c1 | Emax | % | 325

* * *

The following compounds are listed with their measured EC150 (compound concentration showing 150% relative to the control) values.
biological target: human AMPK α1β1γ1 enzyme (Homo sapiens, UniProt Q13131+Q9Y478); construct: purchased Carna Biosciences, Inc; experiment: AMPK activator evaluation, Test Example 1 (mobility shift, FL-Peptide 7); format: biochemical; settings: human AMPK α1β1γ1, control without compound = 100%
endpoint-label: EC150 (compound concentration showing 150% relative to the control) (nM)

chem-smiles | subject-of-test | reported
CC(=O)NC(C)(C)c1ccc(Oc2nc3nc(-c4ccc(C5COC5)cc4)c(Cl)cc3[nH]2)cc1 | human AMPK α1β1γ1 enzyme (Homo sapiens, UniProt Q13131+Q9Y478) | 150
CC(=O)NC(C)(C)c1ccc(Oc2nc3nc(-c4ccc(C5(CO)CCC5)cc4)c(Cl)cc3[nH]2)cc1 | human AMPK α1β1γ1 enzyme (Homo sapiens, UniProt Q13131+Q9Y478) | 66
Cc1ccc(Oc2nc3nc(C#Cc4ccccc4)c(Cl)cc3[nH]2)cc1C(=O)O | human AMPK α1β1γ1 enzyme (Homo sapiens, UniProt Q13131+Q9Y478) | 17
CC(C)(C(N)=O)c1ccc(Oc2nc3nc(-c4ccc(C5(CO)CC5)cc4)c(Cl)cc3[nH]2)cc1 | human AMPK α1β1γ1 enzyme (Homo sapiens, UniProt Q13131+Q9Y478) | 140
NCc1ccc(Oc2nc3nc(-c4ccc(N5CCOCC5)cc4)c(Cl)cc3[nH]2)cc1 | human AMPK α1β1γ1 enzyme (Homo sapiens, UniProt Q13131+Q9Y478) | 370
CC(=O)NC(C)(C)c1ncc(Oc2nc3nc(-c4ccc(N5CCOCC5)cc4)c(Cl)cc3[nH]2)cn1 | human AMPK α1β1γ1 enzyme (Homo sapiens, UniProt Q13131+Q9Y478) | 220
Cc1ccc(-c2ccc(-c3nc4nc(Oc5ccc(C)c(C(=O)O)c5)[nH]c4cc3Cl)cc2)cc1 | human AMPK α1β1γ1 enzyme (Homo sapiens, UniProt Q13131+Q9Y478) | 70
CC(=O)NC(C)(C)c1ccc(Oc2nc3nc(-c4ccc(N5CCOCC5)cc4)c(Cl)cc3[nH]2)cn1 | human AMPK α1β1γ1 enzyme (Homo sapiens, UniProt Q13131+Q9Y478) | 430
O=C1CCc2ccc(Oc3nc4nc(-c5ccc(N6CCOCC6)cc5)c(Cl)cc4[nH]3)cc2N1 | human AMPK α1β1γ1 enzyme (Homo sapiens, UniProt Q13131+Q9Y478) | 61
CC(=O)NC(C)(C)c1ccc(Oc2nc3nc(-c4ccc(N5CCOCC5)cc4)c(Cl)cc3[nH]2)cc1 | human AMPK α1β1γ1 enzyme (Homo sapiens, UniProt Q13131+Q9Y478) | 130
CC(=O)NC(C)(C)c1ccc(Oc2nc3nc(-c4ccc(CCO)cc4)c(Cl)cc3[nH]2)cc1 | human AMPK α1β1γ1 enzyme (Homo sapiens, UniProt Q13131+Q9Y478) | 11
CC(C)(C(=O)O)c1ccc(Oc2nc3nc(-c4ccc(N5CCCC5)cc4)c(Cl)cc3[nH]2)cc1 | human AMPK α1β1γ1 enzyme (Homo sapiens, UniProt Q13131+Q9Y478) | 7.4
CC(C)(C(N)=O)c1ccc(Oc2nc3nc(-c4ccc(C5(COC(N)=O)CC5)cc4)c(Cl)cc3[nH]2)cc1 | human AMPK α1β1γ1 enzyme (Homo sapiens, UniProt Q13131+Q9Y478) | 70
NS(=O)(=O)c1ccc(Oc2nc3nc(-c4ccc(N5CCOCC5)cc4)c(Cl)cc3[nH]2)cc1 | human AMPK α1β1γ1 enzyme (Homo sapiens, UniProt Q13131+Q9Y478) | 360
CC(=O)NCC(C)(C)c1ccc(Oc2nc3nc(-c4ccc(N5CCOCC5)cc4)c(Cl)cc3[nH]2)cc1 | human AMPK α1β1γ1 enzyme (Homo sapiens, UniProt Q13131+Q9Y478) | 52
